// reported EC50 for each item listed
Measurement target: C-CBL (Homo sapiens, UniProt P22681)
Construct: endogenous in cells; host or cells: Jurkat HiBit-IL2 reporter cells, CBL-B knocked out by CRISPR
Assay summary: Jurkat HiBit-IL2 assay (CBL-B KO), reporter cell line expressing C-CBL only
Assay type: cell-based
Conditions used: CBL-B KO (C-CBL only), anti-CD3/anti-CD28 stimulation 4 hours, geometric mean, Table 16a, read-out: CBL-B KO EC50 (nM) GMean

>  <Compound>
C[C@@H](N[C@@H]1CCC(F)(F)C1)c1nc(C(F)(F)F)cc2c(-c3cccc(C4(Cc5nncn5C)COC4)c3)n[nH]c12 (single isomer, unassigned)

>  <Unit descriptor>
nM

>  <EC50>
178

$$$$
>  <Compound>
CC(N[C@H](C)[C@H](C)O)c1nc(C(F)(F)F)cc2c(-c3cccc([C@H](c4nncn4C)C4CCC4)c3)n[nH]c12 (single isomer, unassigned)

>  <Unit descriptor>
nM

>  <EC50>
493

$$$$
>  <Compound>
C[C@@H](O)CN[C@H](C)c1nc(C(F)(F)F)cc2c(-c3cccc([C@H](c4nncn4C)C4CCC4)c3)n[nH]c12 (single isomer, unassigned)

>  <Unit descriptor>
nM

>  <EC50>
122

$$$$

----------
Measurement target: CBL-B (residues 36-427) (Homo sapiens, UniProt Q13191)
Construct: Purified CBL-B (residues 36-427) and C-CBL (residues 46-435) proteins from baculovirus-infected insect cells; made in house; host or cells: baculovirus-infected insect cells
Assay summary: Ligand Displacement Assay (LDA), HTRF competitive binding against BODIPY-labeled fluorescent tracer, CBL-B
Conditions used: geometric mean of the number of tests, read-out: CBL-B Ki (nM) GMean
Property label: Ki (nM)

>  <Molecule>
C[C@@H]1CCCN(Cc2nc(C(F)(F)F)cc3c(-c4cccc([C@H](c5nncn5C)C5CCC5)c4)n[nH]c23)C1

>  <Assay result>
79.4

$$$$
>  <Molecule>
C[C@H](c1nc(C(F)(F)F)cc2c(-c3cccc(C4(Cc5nncn5C)COC4)c3)n[nH]c12)N1CC[C@@H](F)C1 (single isomer, unassigned)

>  <Assay result>
6.6

$$$$
>  <Molecule>
Cn1cnnc1[C@@H](c1cccc(-c2n[nH]c3c(CNC4CCCC4)nc(C(F)(F)F)cc23)c1)C1CCC1

>  <Assay result>
5.1

$$$$
>  <Molecule>
Cn1cnnc1[C@@H](c1cccc(-c2n[nH]c3c(CO)nc(C(F)(F)F)cc23)c1)C1CCC1

>  <Assay result>
45.4

$$$$
>  <Molecule>
CC(c1nc(C(F)(F)F)cc2c(-c3cccc(C4(Cc5nncn5C)COC4)c3)n[nH]c12)N1CCCCC1 (single isomer, unassigned) [Example C21]

>  <Assay result>
21.3

$$$$
>  <Molecule>
CC(N[C@H](C)[C@H](C)O)c1nc(C(F)(F)F)cc2c(-c3cccc([C@H](c4nncn4C)C4CCC4)c3)n[nH]c12 (single isomer, unassigned) [Example C48]

>  <Assay result>
2.5

$$$$

----------
// reported log10 of EC50 for each item listed
Measurement target: CBL-B (Homo sapiens)
Construct: endogenous in cells; host or cells: Jurkat HiBit-IL2 reporter cells, C-CBL knocked out by CRISPR
Assay summary: Jurkat HiBit-IL2 assay (c-CBL KO), reporter cell line expressing CBL-B only
Format: cell-based
Conditions used: c-CBL KO (CBL-B only), anti-CD3/anti-CD28 stimulation 4 hours, geometric mean, Table 16a, read-out: C-CBL KO EC50 (nM) GMean
Property label: log10 of EC50 (log10 of the value in nM)

>  <Compound>
C[C@@H](NC1CCC1)c1nc(C(F)(F)F)cc2c(-c3cccc(C4(Cc5nncn5C)COC4)c3)n[nH]c12

>  <Measurement target>
CBL-B (Homo sapiens)

>  <log10 of EC50>
1.88

$$$$
>  <Compound>
CC(N[C@H](C)[C@H](C)O)c1nc(C(F)(F)F)cc2c(-c3cccc([C@H](c4nncn4C)C4CCC4)c3)n[nH]c12 (single isomer, unassigned)

>  <Measurement target>
CBL-B (Homo sapiens)

>  <log10 of EC50>
1.30

$$$$
>  <Compound>
C[C@H](CO)N[C@@H](C)c1nc(C(F)(F)F)cc2c(-c3cccc([C@H](c4nncn4C)C4CCC4)c3)n[nH]c12 (single isomer, unassigned)

>  <Measurement target>
CBL-B (Homo sapiens)

>  <log10 of EC50>
1.71

$$$$
>  <Compound>
Cn1cnnc1[C@@H](c1cccc(-c2n[nH]c3c(CN[C@H]4CCC(F)(F)C4)nc(C(F)(F)F)cc23)c1)C1CCC1 (single isomer, unassigned)

>  <Measurement target>
CBL-B (Homo sapiens)

>  <log10 of EC50>
1.85

$$$$
>  <Compound>
Cn1cnnc1CC1(c2cccc(-c3n[nH]c4c(CN5CCCCC5)nc(C(F)(F)F)cc34)c2)COC1

>  <Measurement target>
CBL-B (Homo sapiens)

>  <log10 of EC50>
2.06

$$$$
>  <Compound>
C[C@H](N[C@@H]1CCC(F)(F)C1)c1nc(C(F)(F)F)cc2c(-c3cccc(C4(Cc5nncn5C)COC4)c3)n[nH]c12 (single isomer, unassigned)

>  <Measurement target>
CBL-B (Homo sapiens)

>  <log10 of EC50>
1.52

$$$$
>  <Compound>
CC(O)CNC(C)c1nc(C2CC2)cc2c(-c3cccc(C(c4nncn4C)C4CCC4)c3)n[nH]c12 (single isomer, unassigned) [Example H2]

>  <Measurement target>
CBL-B (Homo sapiens)

>  <log10 of EC50>
1.23

$$$$
>  <Compound>
C[C@H](c1nc(C(F)(F)F)cc2c(-c3cccc(C4(Cc5nncn5C)COC4)c3)n[nH]c12)N1CCO[C@@H](C)C1 (single isomer, unassigned)

>  <Measurement target>
CBL-B (Homo sapiens)

>  <log10 of EC50>
2.79

$$$$
>  <Compound>
C[C@H](O)CN[C@H](C)c1nc(C(F)(F)F)cc2c(-c3cccc([C@H](c4nncn4C)C4CCC4)c3)n[nH]c12 (single isomer, unassigned)

>  <Measurement target>
CBL-B (Homo sapiens)

>  <log10 of EC50>
1.00

$$$$
>  <Compound>
CC(NC(=O)CO)c1nc(C(F)(F)F)cc2c(-c3cccc([C@H](c4nncn4C)C4CCC4)c3)n[nH]c12 (single isomer, unassigned) [Example I2]

>  <Measurement target>
CBL-B (Homo sapiens)

>  <log10 of EC50>
2.50

$$$$
>  <Compound>
CC(NC(=O)[C@H](C)O)c1nc(C(F)(F)F)cc2c(-c3cccc([C@H](c4nncn4C)C4CCC4)c3)n[nH]c12 (single isomer, unassigned)

>  <Measurement target>
CBL-B (Homo sapiens)

>  <log10 of EC50>
1.68

$$$$

----------
Measurement target: CBL-B (Homo sapiens, UniProt Q13191)
Construct: endogenous in cells; host or cells: Jurkat HiBit-IL2 reporter cells, C-CBL knocked out by CRISPR
Assay summary: Jurkat HiBit-IL2 assay (c-CBL KO), reporter cell line expressing CBL-B only
Format: cell-based
Conditions used: c-CBL KO (CBL-B only), anti-CD3/anti-CD28 stimulation 4 hours, geometric mean, Table 16a, read-out: C-CBL KO EC50 (nM) GMean
// reported EC50 for each item listed

>  <Compound>
C[C@H](c1nc(C(F)(F)F)cc2c(-c3cccc(C4(Cc5nncn5C)COC4)c3)n[nH]c12)N1C[C@@H](F)[C@H](F)C1 (single isomer, unassigned)

>  <EC50>
172 nM

$$$$
>  <Compound>
C[C@@H](N[C@@H]1CC[C@H]1O)c1nc(C(F)(F)F)cc2c(-c3cccc([C@H](c4nncn4C)C4CCC4)c3)n[nH]c12 (single isomer, unassigned)

>  <EC50>
22 nM

$$$$
>  <Compound>
C[C@H]1CN(Cc2nc(C(F)(F)F)cc3c(-c4cccc([C@H](c5nncn5C)C5CCC5)c4)n[nH]c23)CCO1

>  <EC50>
115 nM

$$$$

----------
Measurement target: WT CBL-B (36-427) (Homo sapiens, UniProt Q13191)
Construct: N-terminal biotinylated WT CBL-B (36-427) and C-CBL (46-435) were captured on a streptavidin (SA) coated sensor chip
Assay summary: Surface Plasmon Resonance (SPR) assay, binding affinity and kinetics, CBL-B
Conditions used: SPR at 10° C., biotinylated WT CBL-B (36-427) on streptavidin chip; geometric mean; read-out: CBL-B SPR Kd (nM) GMean
Assign classes using reported Kd values and the ranges low value (below 5 nM), medium value (5 nM to below 10 nM), high value (10 nM or more), please.

>  <Molecule>
Cn1cnnc1CC1(c2cccc(-c3n[nH]c4c(CCN)nc(C(F)(F)F)cc34)c2)COC1 [Example K5]

>  <Assigned label>
high value

$$$$
>  <Molecule>
C[C@@H]1CN([C@H](C)c2nc(C(F)(F)F)cc3c(-c4cccc(C5(Cc6nncn6C)COC5)c4)n[nH]c23)CCO1 (single isomer, unassigned) [Example D50]

>  <Assigned label>
low value

$$$$
>  <Molecule>
Cn1cnnc1[C@@H](c1cccc(-c2n[nH]c3c(CN4CCC4)nc(C(F)(F)F)cc23)c1)C1CCC1 [Example D83]

>  <Assigned label>
medium value

$$$$
>  <Molecule>
CN(C)c1nc(C(F)(F)F)cc2c(-c3cccc(C4(Cc5nncn5C)COC4)c3)n[nH]c12 [Example J9]

>  <Assigned label>
high value

$$$$
>  <Molecule>
Cn1cnnc1CC1(c2cccc(-c3n[nH]c4c(CN5CCOCC5)nc(C(F)(F)F)cc34)c2)COC1 [Example C63]

>  <Assigned label>
medium value

$$$$
>  <Molecule>
Cn1cnnc1[C@@H](c1cccc(-c2n[nH]c3c(CN[C@H]4CCOC4)nc(C(F)(F)F)cc23)c1)C1CCC1 [Example D1]

>  <Assigned label>
low value

$$$$
>  <Molecule>
Cn1cnnc1CC1(c2cccc(-c3n[nH]c4cnc(OC(F)(F)F)cc34)c2)COC1 [Example B9]

>  <Assigned label>
high value

$$$$
>  <Molecule>
CC(N[C@H]1CCOC1)c1nc(C(F)(F)F)cc2c(-c3cccc(C4(Cc5nncn5C)COC4)c3)n[nH]c12 (single isomer, unassigned) [Example C81]

>  <Assigned label>
low value

$$$$
>  <Molecule>
CC(CN)c1nc(C(F)(F)F)cc2c(-c3cccc([C@H](c4nncn4C)C4CCC4)c3)n[nH]c12 (single isomer, unassigned) [Example K14]

>  <Assigned label>
high value

$$$$
>  <Molecule>
C[C@@H](c1nc(C(F)(F)F)cc2c(-c3cccc(C4(Cc5nncn5C)COC4)c3)n[nH]c12)N1CCNCC1 (single isomer, unassigned) [Example D53]

>  <Assigned label>
low value

$$$$
>  <Molecule>
CN1CCC(Oc2nc(C(F)(F)F)cc3c(-c4cccc(C5(Cc6nncn6C)COC5)c4)n[nH]c23)C1 (stereo in doubt) [Example J2]

>  <Assigned label>
low value

$$$$
>  <Molecule>
CC(c1nc(C(F)(F)F)cc2c(-c3cccc(C4(Cc5nncn5C)COC4)c3)n[nH]c12)N1CCCCC1 (single isomer, unassigned) [Example C21]

>  <Assigned label>
high value

$$$$
